# target desc: T1, U2AF23 WT;U2AF59 fragment (Schizosaccharomyces …, UniProt Q09176;P36629 1-216;93-161, |)
# T1 sequence 1: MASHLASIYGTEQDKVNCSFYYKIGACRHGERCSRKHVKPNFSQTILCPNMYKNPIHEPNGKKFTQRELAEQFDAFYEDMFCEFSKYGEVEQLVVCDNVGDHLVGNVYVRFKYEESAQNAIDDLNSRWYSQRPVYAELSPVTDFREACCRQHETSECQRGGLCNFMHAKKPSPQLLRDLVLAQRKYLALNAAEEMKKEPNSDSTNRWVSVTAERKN
# T1 sequence 2: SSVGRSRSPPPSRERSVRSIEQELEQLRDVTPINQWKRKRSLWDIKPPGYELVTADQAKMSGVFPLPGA
# run description: ITC
Assignment: determine reported pKd for the given binders.
Answers are plain numbers, as −log10 of the molar value.

binder	pKd
CUCGG (ssRNA)	3.53
CUGGG (ssRNA)	4.20
CUUGG (ssRNA)	3.37

Now look at this entry.
# input In one line, give reported pKd of the entry CUAGG (ssRNA) .
# output 5.92
